- EXPERIMENT: in vitro
- STUDY CONDITIONS: mouse, mouse neuronal cells
- Description: Toxicity in mouse neuronal cells assessed as safe dose that maintains 100% cell viability incubated for 72 hrs by MTT assay
Attribute: MNTC at 72 h
READOUT KIND: MNTC at 72 h (nM)

[[record]]
chemical_structure = "C(=N\\Nc1c2c(nc3ccccc13)CCCC2)/c1ccc(OCc2cn(Cc3ccccc3)nn2)cc1"
output_unit = "nM"
reported_value = 2670

[[record]]
chemical_structure = "Cc1ccc(-n2cc(COc3ccc(/C=N/Nc4c5c(nc6ccccc46)CCCC5)cc3)nn2)cc1.Cl"
output_unit = "nM"
reported_value = 2580

[[record]]
chemical_structure = "COc1ccc(-n2cc(COc3ccc(/C=N/Nc4c5c(nc6ccccc46)CCCC5)cc3)nn2)cc1.Cl"
output_unit = "nM"
reported_value = 1450

[[record]]
chemical_structure = "Cl.Clc1ccc(-n2cc(COc3ccc(/C=N/Nc4c5c(nc6ccccc46)CCCC5)cc3)nn2)cc1"
output_unit = "nM"
reported_value = 3580


====

- EXPERIMENT: in vitro
- STUDY CONDITIONS: mouse, mouse neuronal cells
Everything with MNTC at 72 h lower than 2000 nM is no; everything else, including exactly 2000 nM, is yes.

[[record]]
chemical_structure = "S=C(NNc1c2c(nc3ccccc13)CCCC2)Nc1ccc(Br)cc1"
class = "no"

[[record]]
chemical_structure = "S=C(NNc1c2c(nc3ccccc13)CCCC2)Nc1ccc(Cl)cc1"
class = "yes"

[[record]]
chemical_structure = "NS(=O)(=O)c1ccc(NC(=S)NNc2c3c(nc4ccccc24)CCCC3)cc1"
class = "no"

[[record]]
chemical_structure = "C#CCOc1ccc(/C=N/Nc2c3c(nc4ccccc24)CCCC3)cc1"
class = "yes"

[[record]]
chemical_structure = "Cl.O=C(O)c1ccc(-n2cc(COc3ccc(/C=N/Nc4c5c(nc6ccccc46)CCCC5)cc3)nn2)cc1"
class = "no"

[[record]]
chemical_structure = "NS(=O)(=O)c1ccc(-n2cc(COc3ccc(/C=N/Nc4c5c(nc6ccccc46)CCCC5)cc3)nn2)cc1"
class = "no"

[[record]]
chemical_structure = "O=[N+]([O-])c1cccc(-n2cc(COc3ccc(/C=N/Nc4c5c(nc6ccccc46)CCCC5)cc3)nn2)c1"
class = "no"


====

- EXPERIMENT: in vitro
- STUDY CONDITIONS: PAMPA, pH 7.4
READOUT KIND: Papp at 6 h, 50 µM

[[record]]
compound = "Cl.O=C(O)c1ccc(-n2cc(COc3ccc(/C=N/Nc4c5c(nc6ccccc46)CCCC5)cc3)nn2)cc1"
reported_value = "1.77 ×10⁻⁶ cm/s"

[[record]]
compound = "COc1ccc(-n2cc(COc3ccc(/C=N/Nc4c5c(nc6ccccc46)CCCC5)cc3)nn2)cc1.Cl"
reported_value = "6.35 ×10⁻⁶ cm/s"

[[record]]
compound = "NS(=O)(=O)c1cc2c(cc1Cl)N=CNS2(=O)=O [CHLOROTHIAZIDE]"
reported_value = "0.66 ×10⁻⁶ cm/s"

[[record]]
compound = "CNC(=C[N+](=O)[O-])NCCSCc1ccc(CN(C)C)o1"
reported_value = "0.04 ×10⁻⁶ cm/s"

[[record]]
compound = "Brc1ccc(-n2cc(COc3ccc(/C=N/Nc4c5c(nc6ccccc46)CCCC5)cc3)nn2)cc1.Cl"
reported_value = "6.26 ×10⁻⁶ cm/s"

[[record]]
compound = "Cc1ccc(-n2cc(COc3ccc(/C=N/Nc4c5c(nc6ccccc46)CCCC5)cc3)nn2)cc1.Cl"
reported_value = "5.5 ×10⁻⁶ cm/s"

[[record]]
compound = "Cl.Clc1ccc(-n2cc(COc3ccc(/C=N/Nc4c5c(nc6ccccc46)CCCC5)cc3)nn2)cc1"
reported_value = "6.07 ×10⁻⁶ cm/s"


Where do the numbers come from? From ChEMBL document CHEMBL4339188.
